All values here come from paper PMC9295256.

Here the recorded Amax, maximum % activation achieved (95% CI) is given for each entry.
study-target: recombinant rat Nln (Rattus norvegicus)
Sequence (P42676 38-704): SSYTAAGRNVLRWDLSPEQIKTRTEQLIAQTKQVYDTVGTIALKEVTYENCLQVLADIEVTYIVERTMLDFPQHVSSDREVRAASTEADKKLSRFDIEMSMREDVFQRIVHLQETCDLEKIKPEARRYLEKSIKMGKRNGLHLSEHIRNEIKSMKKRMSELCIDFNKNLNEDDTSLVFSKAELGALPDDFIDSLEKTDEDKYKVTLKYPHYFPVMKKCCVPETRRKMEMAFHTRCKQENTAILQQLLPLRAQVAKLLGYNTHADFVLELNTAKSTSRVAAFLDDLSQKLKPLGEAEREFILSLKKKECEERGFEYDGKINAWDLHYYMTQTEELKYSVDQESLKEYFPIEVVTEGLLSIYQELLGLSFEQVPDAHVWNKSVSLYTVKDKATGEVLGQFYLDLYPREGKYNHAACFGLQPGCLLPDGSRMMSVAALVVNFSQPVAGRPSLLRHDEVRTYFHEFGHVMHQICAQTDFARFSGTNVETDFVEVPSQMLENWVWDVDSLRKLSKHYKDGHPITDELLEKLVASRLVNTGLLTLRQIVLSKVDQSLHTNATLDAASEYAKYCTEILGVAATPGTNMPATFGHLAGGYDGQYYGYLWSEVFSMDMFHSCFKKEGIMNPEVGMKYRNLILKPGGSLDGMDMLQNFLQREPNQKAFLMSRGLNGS
measurement-description: Nln activation, continuous quenched fluorescence substrate
Assay type: biochemical
Peptide text beside a SMILES is read from it.

Known results for molecules:
N[C@@H](Cc1cnc[nH]1)C(=O)N[C@@H](Cc1ccccc1)C(=O)O [Compound 3, His–Phe] (H-His-Phe-OH)
442.3 (418.8 to 467.6) %
N[C@H](Cc1c[nH]cn1)C(=O)NCc1cccc(C(F)(F)F)c1 [Compound 5m]
282 (258.4 to 309.1) %
N[C@@H](Cc1c[nH]cn1)C(=O)NCCc1ccc2ccccc2c1 [Compound 9f]
323.7 (310.3 to 337.9) %

stdin: Output measured Amax, maximum % activation achieved (95% CI) for this item: COc1ccccc1CNC(=O)[C@H](N)Cc1c[nH]cn1 [Compound 5e]
stdout: 324.9 (304 to 349) %

stdin: Please look at this molecule and report its Amax, maximum % activation achieved (95% CI): COc1ccccc1CNC(=O)[C@@H](N)Cc1c[nH]cn1 [Compound 5d]
stdout: 385.8 (363.8 to 410.5) %

stdin: Tell us which Amax, maximum % activation achieved (95% CI) value is on record for COc1ccc(CNC(=O)[C@@H](N)Cc2c[nH]cn2)cc1 [Compound 5b]
stdout: 428.8 (373 to 523.5) %

stdin: Given N[C@H](Cc1c[nH]cn1)C(=O)NCCc1ccc(C(F)(F)F)cc1 [Compound 4l] , respond with its Amax, maximum % activation achieved (95% CI).
stdout: 330.1 (313.9 to 347.7) %

stdin: Supply reported Amax, maximum % activation achieved (95% CI) belonging to this molecule: N[C@@H](Cc1cnc[nH]1)C(=O)N[C@@H](Cc1ccc(O)cc1)C(=O)O [Compound 1, His–Tyr] (H-His-Tyr-OH)
stdout: 465.2 (440.2 to 492.3) %

stdin: Quickly give me recorded Amax, maximum % activation achieved (95% CI) for N[C@H](Cc1c[nH]cn1)C(=O)NCc1ccc(OC(F)(F)F)cc1 [Compound 5q]
stdout: 337.1 (312 to 364.9) %

stdin: Input N[C@H](Cc1c[nH]cn1)C(=O)NCCc1ccc2ccccc2c1 [Compound 9g] , output reported Amax, maximum % activation achieved (95% CI).
stdout: 339.8 (325.4 to 355.4) %

stdin: Let me know recorded Amax, maximum % activation achieved (95% CI) for COc1cccc(CNC(=O)[C@@H](N)Cc2c[nH]cn2)c1 [Compound 5f] , thanks.
stdout: 327.5 (309.7 to 348.2) %

stdin: Give reported Amax, maximum % activation achieved (95% CI) value for N[C@@H](Cc1c[nH]cn1)C(=O)NCc1ccccc1 [Compound 5a]
stdout: 152.2 (137.3 to 171.5) %

stdin: Quickly give me recorded Amax, maximum % activation achieved (95% CI) for N[C@H](Cc1c[nH]cn1)C(=O)NCc1ccccc1C(F)(F)F [Compound 5k]
stdout: 345.8 (317.5 to 378.3) %
